# PD-L1 MFI at 33.3 nM listing for each entry below
- test target: huPD-L1 (Homo sapiens, UniProt Q9NZQ7)
- Sequence (Q9NZQ7 19-290): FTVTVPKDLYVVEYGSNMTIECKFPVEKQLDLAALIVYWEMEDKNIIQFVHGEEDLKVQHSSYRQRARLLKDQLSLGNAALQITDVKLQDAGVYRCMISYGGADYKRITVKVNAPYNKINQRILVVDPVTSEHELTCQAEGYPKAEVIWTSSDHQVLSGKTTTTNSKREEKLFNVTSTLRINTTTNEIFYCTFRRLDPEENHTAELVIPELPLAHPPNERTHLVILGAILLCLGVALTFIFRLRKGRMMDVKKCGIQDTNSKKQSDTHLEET
- assay summary: Flow binding to CHO cells stably expressing PD-L1
- Set-up: huCTLA4 and huPD-L1, full-length mammalian surface expression constructs were generated; expressed in transfected cells; host or cells: CHO cells, lentiviral transduction, sorted to >98% purity
- cond: Table E10; 33.3 nM; CHO cells stably expressing PD-L1
recorded metric: PD-L1 MFI at 33.3 nM

molecule	recorded metric	result number
E35D/M43I/D46E/A71G/L85M (protein) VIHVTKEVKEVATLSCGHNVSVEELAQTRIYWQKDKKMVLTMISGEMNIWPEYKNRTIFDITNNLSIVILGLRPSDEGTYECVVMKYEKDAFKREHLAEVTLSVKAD	PD-L1 MFI at 33.3 nM	7138
E35D/L97R (protein) VIHVTKEVKEVATLSCGHNVSVEELAQTRIYWQKDKKMVLTMMSGDMNIWPEYKNRTIFDITNNLSIVILALRPSDEGTYECVVLKYEKDAFKREHRAEVTLSVKAD	PD-L1 MFI at 33.3 nM	2614
D46V/M47I/A71G (protein) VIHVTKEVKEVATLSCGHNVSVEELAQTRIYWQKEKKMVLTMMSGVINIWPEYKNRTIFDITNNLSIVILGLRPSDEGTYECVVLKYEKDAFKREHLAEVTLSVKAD	PD-L1 MFI at 33.3 nM	7328
E35D/M47V/N48K/L85M (protein) VIHVTKEVKEVATLSCGHNVSVEELAQTRIYWQKDKKMVLTMMSGDVKIWPEYKNRTIFDITNNLSIVILALRPSDEGTYECVVMKYEKDAFKREHLAEVTLSVKAD	PD-L1 MFI at 33.3 nM	5660
V22A/E35D/M47L/A71G (protein) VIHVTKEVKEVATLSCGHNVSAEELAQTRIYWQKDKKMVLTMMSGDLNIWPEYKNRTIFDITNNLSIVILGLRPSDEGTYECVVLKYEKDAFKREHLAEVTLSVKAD	PD-L1 MFI at 33.3 nM	8168
M43I/M47L/A71G (protein) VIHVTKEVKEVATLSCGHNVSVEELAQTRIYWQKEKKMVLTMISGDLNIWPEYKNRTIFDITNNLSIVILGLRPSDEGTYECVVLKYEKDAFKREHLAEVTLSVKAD	PD-L1 MFI at 33.3 nM	7763
E35D/T41S/N48T (protein) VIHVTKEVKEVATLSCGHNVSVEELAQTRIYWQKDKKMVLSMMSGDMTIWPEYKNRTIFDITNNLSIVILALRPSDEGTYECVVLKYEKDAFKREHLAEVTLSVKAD	PD-L1 MFI at 33.3 nM	2191
E35D/D46E/M47I (protein) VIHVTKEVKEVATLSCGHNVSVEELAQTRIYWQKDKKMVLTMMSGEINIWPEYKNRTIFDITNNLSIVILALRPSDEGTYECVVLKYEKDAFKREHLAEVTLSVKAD	PD-L1 MFI at 33.3 nM	3789
